Origin of measurements: ChEMBL document CHEMBL6182847

testTarget: UniProt P00533
measurementKind: pIC50
Friendly reminder that pIC50 comes from taking -log10 of the concentration in mol/L.

GET /values?item= `C=CC(=O)Nc1cnn(-c2ccnc(Nc3cc(C)c(N4CCC(N5CCN(C)CC5)CC4)cc3OC)n2)c1` &system= UniProt P00533 returns pIC50: 6.31

###

Tested on: Epidermal growth factor receptor (Homo sapiens), P00533 [L858R,T790M,C797S]
Sequence (P00533 whole entry T790M/C797S/L858R): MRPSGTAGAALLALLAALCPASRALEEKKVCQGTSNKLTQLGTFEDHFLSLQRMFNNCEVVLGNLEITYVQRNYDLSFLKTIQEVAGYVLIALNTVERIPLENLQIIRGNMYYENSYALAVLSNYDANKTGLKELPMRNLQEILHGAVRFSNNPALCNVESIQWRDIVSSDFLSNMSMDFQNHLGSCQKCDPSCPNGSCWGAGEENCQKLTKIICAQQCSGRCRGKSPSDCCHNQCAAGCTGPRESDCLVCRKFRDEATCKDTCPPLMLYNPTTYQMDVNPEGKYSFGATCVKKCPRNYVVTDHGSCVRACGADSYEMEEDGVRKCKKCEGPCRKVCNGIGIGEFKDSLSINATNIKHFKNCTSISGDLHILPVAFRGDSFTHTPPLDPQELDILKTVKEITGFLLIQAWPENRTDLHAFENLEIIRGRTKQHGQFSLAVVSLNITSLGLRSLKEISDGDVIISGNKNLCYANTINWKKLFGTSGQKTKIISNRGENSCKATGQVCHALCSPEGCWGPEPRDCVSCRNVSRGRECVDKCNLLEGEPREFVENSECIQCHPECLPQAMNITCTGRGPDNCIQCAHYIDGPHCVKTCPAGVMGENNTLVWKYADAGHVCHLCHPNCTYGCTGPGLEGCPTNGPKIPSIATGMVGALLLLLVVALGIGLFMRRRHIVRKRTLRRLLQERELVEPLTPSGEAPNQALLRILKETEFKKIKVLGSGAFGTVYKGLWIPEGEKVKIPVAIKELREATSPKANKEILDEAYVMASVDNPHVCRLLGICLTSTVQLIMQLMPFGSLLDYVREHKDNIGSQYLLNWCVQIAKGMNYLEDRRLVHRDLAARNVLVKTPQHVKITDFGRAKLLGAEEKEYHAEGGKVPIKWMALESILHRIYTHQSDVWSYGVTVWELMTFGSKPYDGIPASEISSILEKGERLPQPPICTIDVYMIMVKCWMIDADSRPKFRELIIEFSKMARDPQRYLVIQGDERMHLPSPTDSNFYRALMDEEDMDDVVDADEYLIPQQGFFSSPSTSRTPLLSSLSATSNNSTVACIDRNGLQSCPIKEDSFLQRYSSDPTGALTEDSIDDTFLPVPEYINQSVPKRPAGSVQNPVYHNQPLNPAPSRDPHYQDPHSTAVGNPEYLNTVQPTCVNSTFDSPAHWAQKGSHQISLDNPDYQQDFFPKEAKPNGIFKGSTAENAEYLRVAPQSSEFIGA
conditions: dose 500.0 nM
Description: Inhibition of EGFR L858R/T790M/C797S mutant (unknown origin) at 500 nM relative to control
measurementKind: inhibition (%)

- compoundSmiles: "C/C=C/C(=O)Nc1cnn(-c2ccnc(Nc3cc(C)c(N4CCC(N5CCN(C)CC5)CC4)cc3OC)n2)c1"
  testTarget: "Epidermal growth factor receptor (Homo sapiens), P00533 [L858R,T790M,C797S]"
  observedValue: 81.9
- compoundSmiles: "COc1cc(N2CCC(N3CCN(C)CC3)CC2)c(C)cc1Nc1ncc(Br)c(-n2ccc(-c3ccccc3NS(=O)(=O)C3CC3)n2)n1"
  testTarget: "Epidermal growth factor receptor (Homo sapiens), P00533 [L858R,T790M,C797S]"
  observedValue: 81.8
- compoundSmiles: "CCC(=O)Nc1cnn(-c2ccnc(Nc3cc(C)c(N4CCC(N5CCN(C)CC5)CC4)cc3OC)n2)c1"
  testTarget: "Epidermal growth factor receptor (Homo sapiens), P00533 [L858R,T790M,C797S]"
  observedValue: 85.4
- compoundSmiles: "COc1cc(N2CCC(N3CCN(C)CC3)CC2)c(C)cc1Nc1nccc(-n2cc(NS(=O)(=O)C3CC3)cn2)n1"
  testTarget: "Epidermal growth factor receptor (Homo sapiens), P00533 [L858R,T790M,C797S]"
  observedValue: 93.2
- compoundSmiles: "C=CC(=O)Nc1cnn(-c2ccnc(Nc3cc(C)c(N4CCN(C(C)C)CC4)cc3OC)n2)c1"
  testTarget: "Epidermal growth factor receptor (Homo sapiens), P00533 [L858R,T790M,C797S]"
  observedValue: 46.1
- compoundSmiles: "C=CC(=O)Nc1cnn(-c2ccnc(Nc3cc(C)c(N4CCC(N5CCCC5)CC4)cc3OC)n2)c1"
  testTarget: "Epidermal growth factor receptor (Homo sapiens), P00533 [L858R,T790M,C797S]"
  observedValue: 75.7

[P] C=CC(=O)Nc1ccccc1-c1ccn(-c2nc(Nc3cc(C)c(N4CCC(N5CCN(C)CC5)CC4)cc3OC)ncc2Br)n1
[Q] C=CC(=O)Nc1cnn(-c2ccnc(Nc3cc(C)c(N4CCN(C)CC4)cc3OC)n2)c1
Prompt: Field: entry with larger inhibition (options P / Q ). Write down the label of the entry you select.
Completion: P
